B1: PhoQ; a variant is named by its letters at X, in order, P23837 (parent)
chain: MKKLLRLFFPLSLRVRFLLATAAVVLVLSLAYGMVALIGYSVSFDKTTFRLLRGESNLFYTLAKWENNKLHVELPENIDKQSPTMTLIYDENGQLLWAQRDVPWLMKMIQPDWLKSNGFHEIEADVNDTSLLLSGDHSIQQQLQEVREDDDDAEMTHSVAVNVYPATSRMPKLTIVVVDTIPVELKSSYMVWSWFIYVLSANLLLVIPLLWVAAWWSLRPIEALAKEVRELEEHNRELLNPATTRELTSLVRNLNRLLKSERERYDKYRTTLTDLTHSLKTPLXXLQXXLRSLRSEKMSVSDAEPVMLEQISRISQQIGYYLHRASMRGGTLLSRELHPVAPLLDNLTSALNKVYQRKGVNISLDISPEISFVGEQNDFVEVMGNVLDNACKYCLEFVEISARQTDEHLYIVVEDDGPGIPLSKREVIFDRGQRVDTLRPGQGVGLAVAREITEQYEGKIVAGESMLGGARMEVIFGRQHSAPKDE

Variants of: B1
Test: enrichment ratio after two sorts for PhoP signalling (ratio (wild type AVST 3.29)); higher = more functional
Settings: with PhoP (E. coli)
The full ranking holds about 140,000 sequences; the median of “enrichment ratio after two sorts for PhoP signalling” is about 0, and the highest 2% start at about 11. Many of the other results were omitted from the sample, so the highest values are more common in it than they were.
value-type: enrichment ratio

>>> observed("KFYP")
"≤ 0.25"
>>> observed("PWMR")
"≤ 0.25"
>>> observed("DFQL")
"≤ 0.25"
>>> observed("SGLA")
8.41
>>> observed("NMCT")
"≤ 0.25"

Give enrichment ratio for each of the items listed below.
1. HLFA
2. SGLI
3. NDYC
4. QEPD

≤ 0.25
16.2
≤ 0.25
≤ 0.25
